Origin of values: PubChem BioAssay (NCI)

Tested on: SR leukemia
Test: NCI tumour cell line growth inhibition, 48 h
Recorded TGI values for a group of molecules are listed next.

Solved cases (3 shown):
| molecule | system-under-test | TGI |
| --- | --- | --- |
| O=C(O)c1ccccc1Sc1ccc(C=C2NC(=S)N(c3ccccc3)C2=O)s1 | SR leukemia | > 100 µM |
| Nc1nc(N)c(CCCCc2ccc([N+](=O)[O-])cc2)c(N)n1 | SR leukemia | > 100 µM |
| COc1cc([C@H]2OC[C@@H]3C(c4cc(OC)c5c(c4)OCO5)OC[C@H]23)cc(OC)c1OC (stereo not given in full) | SR leukemia | > 100 µM |

Shift focus to the following entry.
Request: Item under review: N#C/C(=C/c1ccc([N+](=O)[O-])o1)c1ccccc1 . Reported TGI?
Response: > 100 µM

---

System: XF 498 CNS
Assay: NCI tumour cell line growth inhibition, 48 h
metric-name: TGI

Some solved entries appear below for comparison.
| compound | TGI |
| --- | --- |
| CCCC(O)c1ccc2[nH]c3c(C)cc([N+](=O)[O-])c(C)c3c2c1 (stereo not drawn) | > 100 µM |
| Nc1nc(N)c(CCCCc2ccc([N+](=O)[O-])cc2)c(N)n1 | > 100 µM |

Request: Bench note: what TGI did O=[N+]([O-])c1ccc(N=P(c2ccccc2)(c2ccccc2)c2ccccc2)n2nnnc12 show?
Response: > 100 µM

---

TGI by entry:
System: 786-0 renal
Test: NCI tumour cell line growth inhibition, 48 h

Request: TGI lookup needed for CC(=O)CC(O)(C(F)(F)Cl)C(F)(Cl)Cl (stereo not given) , thanks.
Response: > 10 µM

Request: Which TGI is listed for Cc1cc2c3ccccc3n3c2c2c1OC1(C)CCC(C2C1)C3(C)C (stereo not given) ?
Response: > 25 µM

Request: What does the data say about its TGI? Entry: CC[C@@]1(O)C(=O)OCc2c1cc1n(c2=O)Cc2c-1nc1ccc(N)cc1c2CC[Si](C)(C)C
Response: < 0.0276 µM

Request: Give its TGI value. Item: NS(=O)(=O)c1cccc(Nc2cc(-c3ccc(F)cc3)[nH]n2)c1
Response: > 25 µM

Request: Form field: reported TGI of Cc1ccc2c(c1)CC1(Cc3cc(C)ccc3C1=O)C2=O
Response: > 100 µM

---

Tested on: HCT-116 colon
Assay: NCI tumour cell line growth inhibition, 48 h
Known TGI of a selection of compounds

Some solved entries appear below for comparison.
| compound | TGI |
| --- | --- |
| COC(=O)[C@@H]1CN(C(=O)Cc2ccccc2)C(=O)N1 | > 100 µM |
| COc1cc(/C=N\Nc2ccccc2)ccc1OC(=O)c1ccccc1 | > 100 µM |

Request: TGI lookup needed for COc1ccccc1NC(=O)c1sc2ncn(CCOc3ccccc3)c(=O)c2c1C , thanks.
Response: > 50 µM

---

// values below are reported TGI
System: SK-OV-3 ovarian
Assay: NCI tumour cell line growth inhibition, 48 h

Solved entries:
| molecule | system-under-test | TGI |
| --- | --- | --- |
| C=CCN(C(C)=O)c1cc(OCc2ccccc2)c2c(c1)c(C)cn2S(=O)(=O)c1ccccc1 | SK-OV-3 ovarian | > 100 µM |
| O=C(OC[C@H]1C[C@H]2C(=O)OCCC[C@H]2O1)c1ccccc1 | SK-OV-3 ovarian | > 100 µM |

Request: Look up TGI: O=C(CC(C(=O)c1ccsc1)c1cccs1)c1cccs1 (stereo not drawn)
Response: > 100 µM

---

Tested on: HCT-15 colon
Assay: NCI tumour cell line growth inhibition, 48 h
metric-name: TGI (µM)
Provide the reading as a plain figure in µM.

Solved entries (count: 4):
| molecule | system-under-test | TGI, µM |
| --- | --- | --- |
| COC(=O)c1sc2c(c1C(=O)OC)C(=Nc1ccc(OC)cc1)SC2=Nc1ccc(OC)cc1 | HCT-15 colon | 1.66 |
| O=C1CCNC/C1=C\c1ccccc1 | HCT-15 colon | 50.1 |
| COc1cccc(/C=C\C(=O)c2ccccc2)c1 | HCT-15 colon | 10.1 |
| O=C1c2ccccc2C(=O)c2c1ccc1c3ccccc3n(-c3ccccc3)c21 | HCT-15 colon | 32.6 |

Request: State its TGI on HCT-15 colon: Cc1ccccc1NC(=O)C(=O)C(C(=O)c1ccccc1F)C1OC(=O)c2ccccc21 (stereo not drawn)
Response: 79.5

Request: Hello, I am looking for reported TGI with HCT-15 colon for CNC(=O)OC1/C(C)=C\C(C)C(O)C(OC)CC(C)CC2=C(OC)C(=O)C=C(C2=O)N(C)C(=O)/C(C)=C/C=C\C1OC (stereo not drawn) . Could you help?
Response: 17.5

Request: Form entry - test system: HCT-15 colon; read-out: TGI; molecule: CCOC(=O)Nc1cc2c(c(N)n1)N=C(c1ccc(Cl)cc1Cl)CN2
Response: 9.02

Request: Give HCT-15 colon TGI for CC(C)C1OC(=O)C(Cc2ccccc2)N(C)C(=O)C(C(C)C)OC(=O)C(Cc2ccccc2)N(C)C(=O)C(C(C)C)OC(=O)C(Cc2ccccc2)N(C)C1=O (stereo not drawn)
Response: 2.61

Request: Find TGI (HCT-15 colon) for the entry O=C1N[C@@H]([C@H]2CC[C@H](Cl)CN2)C(=O)N[C@H]1[C@H]1CC[C@H](Cl)CN1
Response: 57.5

---

Test system: ACHN renal
Experiment: NCI tumour cell line growth inhibition, 48 h
metric-name: TGI

| compound | system-under-test | TGI |
| --- | --- | --- |
| COc1cc(/C=N\Nc2ccccc2)ccc1OC(=O)c1ccccc1 | ACHN renal | > 100 µM |
| COC(=O)CC(=O)OC1C[C@@H]2CCC3C(C)(C)CCC[C@]3(C)C23CC[C@@]1(C)C3 (some centres undefined) | ACHN renal | 31.7 µM |
| O=C1OCc2nc3c(c(-c4ccccc4C(F)(F)F)c21)C(=O)OC3 | ACHN renal | > 100 µM |
| COC(=O)[C@]12CC[C@@H](C)[C@H](C)[C@@H]1C1=CC[C@@H]3[C@@]4(C)C[C@@H](OC(C)=O)[C@H](OC(C)=O)[C@@](C)(COC(C)=O)[C@@H]4[C@H](O)C[C@@]3(C)[C@]1(C)CC2 | ACHN renal | > 100 µM |
| CCOC(=O)c1cccc(N=NNc2cccc(C(=O)OCC)c2)c1 | ACHN renal | > 100 µM |

Request: Suppose we examine the compound CCC(C)C(NC(=O)c1cccc2c(=O)c3ccccc3[nH]c12)C(=O)O (centres undefined) ; what TGI value has been reported?
Response: > 100 µM

Request: Sample COc1cccc(C2c3cc4c(cc3OC(NNS(=O)(=O)c3ccc(C)cc3)C2C)OCO4)c1O (centres undefined) — what was its TGI?
Response: > 100 µM

Request: Returns the measured TGI for the input compound. Input: O=C1c2ccccc2CC12Cc1ccc3c(c1C2=O)CCCC3 (centres undefined)
Response: > 100 µM

Request: Any idea what its TGI is? The compound is COc1ccc(/C(=C(\c2ccccc2)[N+](=O)[O-])c2ccc(OCCN3CCCC3)cc2)cc1
Response: 18.6 µM

Request: Reported TGI for COC(=O)[C@@H]1CN(C(=O)Cc2ccccc2)C(=O)N1 : what is it?
Response: > 100 µM

Request: Which TGI is listed for O=c1[nH]nc(-c2cccc([N+](=O)[O-])c2)[nH]1 ?
Response: > 100 µM

---

Test system: SNB-75 CNS
Assay: NCI tumour cell line growth inhibition, 48 h
# TGI per entry

See these solved cases before continuing.
| molecule | observed-value |
| --- | --- |
| Cc1nc2nnc(CCCCCCCCc3nnc4nc(C)[nH]n34)n2[nH]1 | > 100 µM |
| NN=C1/C(=C\c2ccccc2)CCC/C1=C/c1ccccc1 | > 100 µM |
| CC(=O)N(C(=O)CC(=O)N1N=C(C)C(N=Nc2cccc([N+](=O)[O-])c2)C1=O)c1ccc(Cl)cc1 (stereo unspecified) | > 10 µM |

Request: Can you look up the measured TGI of CCN(CC)C(=O)Cc1[nH][nH]c(=O)c1C(=O)N(CC)CC for me?
Response: > 100 µM

Request: Looking for the measured TGI of O=C1CC2(CCN(Cc3ccccc3)CC2)C(=O)N1N1CCCCC1 , can you help?
Response: > 100 µM

Request: Item CC(C)C(Sc1nc(N)nc2nc[nH]c12)C(=O)O (stereo unspecified) has what recorded TGI?
Response: > 100 µM

---

// reported TGI per item
Test system: LOX IMVI melanoma
Test: NCI tumour cell line growth inhibition, 48 h

Consider the worked cases shown below.
| molecule | metric-name | observed-value |
| --- | --- | --- |
| Cc1ccc(NC(c2ccccc2)P(=O)(c2ccccc2)c2ccccc2)cc1 (configuration not stated) | TGI | > 100 µM |
| N/N=C1/C(=O)N(c2ccc(Cl)cc2)C(=O)C(=O)C1c1nc2ccccc2s1 (configuration not stated) | TGI | > 100 µM |
| CC(=O)CC(O)(C(F)(F)Cl)C(F)(Cl)Cl (configuration not stated) | TGI | > 10 µM |
| CC(=O)OC1COC(N2C(=O)C(=O)c3ccccc32)C(OC(C)=O)C1OC(C)=O (configuration not stated) | TGI | > 100 µM |
| CC1CCc2c(C(=O)Nc3ncc(Cc4cccc([N+](=O)[O-])c4)s3)csc2C1 (configuration not stated) | TGI | > 100 µM |

Request: Given O=C(O)c1ccccc1Sc1ccc(C=C2NC(=S)N(c3ccccc3)C2=O)s1 , state its recorded TGI.
Response: > 100 µM

Request: For the molecule shown here, COc1cc([C@H]2OC[C@@H]3C(c4cc(OC)c5c(c4)OCO5)OC[C@H]23)cc(OC)c1OC (some centres not stated) , give the reported TGI.
Response: > 100 µM

Request: Find the recorded TGI belonging to CN(N=O)c1ccc(/C=C/c2ccnc3ccccc23)cc1 and report it.
Response: > 100 µM

Request: # query: TGI of entry CC1=Nc2ccccc2S/C1=C1/C=NC(=NC#N)N=C1C(=O)Nc1cccc(Cl)c1
Response: > 100 µM

Request: Record request: TGI value, item COC(=O)C(=O)C(C(=O)C(=O)Nc1cc(C)ccc1C)c1nc2ccccc2[nH]c1=O (configuration not stated)
Response: > 100 µM

Request: Consider the molecule O=C1OCOC2(CCCC2)C1c1ccccc1 (configuration not stated) and give its measured TGI.
Response: > 100 µM
